- procedure_text: chemical genetic growth profiling, strain panel (AID 1159580);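 note: tested at 20 µM; growth read once vehicle control cultures reached saturation at 30 °C; 1 = growth at the plate median or of vehicle wells; lower values mean less growth of the strain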
- run_parameters: S. cerevisiae deletion strains, growth OD, locus YHR205W, strain SCH9, active compounds read low
Among all 5,500 compounds or so, about 2,000 (36%) were called active. Inconclusive results (about 18%) are left out. The list shows a part of the results.

>  <molecule>
Oc1c(Cl)cc(Cl)cc1C=Nc1nc(-c2ccc3ccccc3c2)cs1

>  <normalized growth>
0.737

$$$$
>  <molecule>
COc1cccc(C2CCN(C(=O)c3cccc4ccccc34)CC2)c1

>  <normalized growth>
0.907

$$$$
>  <molecule>
O=[N+]([O-])c1ccc(-c2noc(-c3ccno3)n2)o1

>  <normalized growth>
-0.000394

$$$$
>  <molecule>
CC(C)(C)c1ccc(C(=N)SC(C(=O)C(F)(F)F)c2ccccc2)cc1 (stereo unspecified)

>  <normalized growth>
0.778

$$$$
>  <molecule>
O=C(c1csc(-c2ccc(Cl)cc2)c1)N1CCCCC1

>  <normalized growth>
0.801

$$$$
>  <molecule>
CCCN(CCC)C(=S)NC(=O)c1cccc([N+](=O)[O-])c1

>  <normalized growth>
0.976

$$$$
>  <molecule>
CC(=O)c1ccc(Cl)c(NS(=O)(=O)c2cc(Cl)c(Cl)cc2Cl)c1

>  <normalized growth>
0.801

$$$$
>  <molecule>
O=C(Nc1cccc(C(F)(F)F)c1)c1cncc(C#Cc2ccccc2)c1

>  <normalized growth>
0.776

$$$$
>  <molecule>
CC(C)c1ccc(COC(=O)Nc2ccc(CSc3ccc(Cl)cc3)o2)cc1

>  <normalized growth>
0.82

$$$$
>  <molecule>
CCOC(=O)C1C(c2c(F)cccc2Cl)C(C(=O)OCC)C(O)(C(F)(F)F)NC1(O)C(F)(F)F (stereo unspecified)

>  <normalized growth>
0.965

$$$$
>  <molecule>
C/C(Cc1nnn(-c2cc(C)on2)n1)=N/OC(=O)Nc1ccc(Cl)cc1

>  <normalized growth>
0.787

$$$$
>  <molecule>
Fc1cc(I)ccc1Nc1ccnc2cc(Cl)ccc12

>  <normalized growth>
0.93

$$$$
>  <molecule>
N/C(CCSc1ccc(Cl)cc1)=N/OC(=O)Nc1ccc(Cl)cc1

>  <normalized growth>
0.253

$$$$
>  <molecule>
CC1(C)CC(=O)C=C(Sc2nc3ccccc3o2)C1

>  <normalized growth>
0.861

$$$$
>  <molecule>
O=[N+]([O-])c1ccc(ON=C2CCCCC2)c([N+](=O)[O-])c1

>  <normalized growth>
0.448

$$$$
>  <molecule>
O=C(ON=C1CCCCC1)c1ccc([N+](=O)[O-])cc1

>  <normalized growth>
0.829

$$$$
>  <molecule>
N/C(Cn1ccc(C(F)(F)F)n1)=N/OS(=O)(=O)c1cccc(Cl)c1Cl

>  <normalized growth>
1.02

$$$$
>  <molecule>
O=C(Oc1cccc2[nH]ccc12)c1ccc(C(F)(F)F)cc1

>  <normalized growth>
0.862

$$$$
>  <molecule>
N#C/C(=N/Nc1ccc(F)cc1)S(=O)(=O)c1ccc(Cl)cc1

>  <normalized growth>
0.907

$$$$
>  <molecule>
COc1ccc(C(CC(=O)c2ccccc2)Sc2ccccc2N)cc1OC (stereo unspecified)

>  <normalized growth>
0.935

$$$$
>  <molecule>
CC(=O)/C(C#N)=N\Nc1ccc(F)cc1

>  <normalized growth>
0.102

$$$$

Ref: PubChem BioAssay AID1159580
